Source of measurements: ChEMBL document CHEMBL4513216

# TEST_PROTOCOL: Toxicity liver stage against HepG2, at 10uM
# Format: cell-based
# Set-up: test concentration 10 uM, cell line HepG2-A16-CD81EGFP
# CONDITION_INFO: human, HepG2-A16-CD81EGFP cells; read-out: INHIBITION
MEASURED_PROPERTY: cytotoxicity at 10 µM (%)

[
  {
    "MOLECULE": "c1nc(N2CCOCC2)sc1-c1cncn1CCCN1CCCCC1",
    "OBSERVED_MEASUREMENT": 0.682
  },
  {
    "MOLECULE": "Cc1nccn1CCCC(=O)N1CCCN(c2cccnn2)CC1",
    "OBSERVED_MEASUREMENT": -9.35
  },
  {
    "MOLECULE": "CN(C)Cc1nnc(C2CCCN(c3nccc4ccccc34)C2)n1C (centres undefined)",
    "OBSERVED_MEASUREMENT": -0.928
  },
  {
    "MOLECULE": "CC(C)(NS(C)(=O)=O)C(=O)NCCc1csc2ccccc12",
    "OBSERVED_MEASUREMENT": 0.694
  }
]

====

Reported cytotoxicity at 10 µM by item:
# TEST_PROTOCOL: Toxicity liver stage against HepG2, at 10uM
# Format: cell-based
# Set-up: test concentration 10 uM, cell line HepG2-A16-CD81EGFP
# CONDITION_INFO: human, HepG2-A16-CD81EGFP cells; read-out: INHIBITION

[
  {
    "MOLECULE": "CCOCCC(=O)N1CCc2cccc(S(=O)(=O)N3CCOCC3)c2C1",
    "cytotoxicity at 10 µM, %": -7.41
  },
  {
    "MOLECULE": "CO[C@H]1C[C@@H](O)C12CCN(CCOc1ccc(Cl)cc1)CC2",
    "cytotoxicity at 10 µM, %": -9.66
  },
  {
    "MOLECULE": "CCC(=O)N1CCN(c2cc(N(C)C)cnn2)CC1",
    "cytotoxicity at 10 µM, %": 2
  },
  {
    "MOLECULE": "CC[C@H](N)Cn1nc(-c2cccs2)oc1=O",
    "cytotoxicity at 10 µM, %": 1.75
  },
  {
    "MOLECULE": "CCOC(=O)CNC(=O)c1cc(-c2ccccc2)nc2ncnn12",
    "cytotoxicity at 10 µM, %": -5.75
  },
  {
    "MOLECULE": "CCN1CC(C(=O)NC(C)(C)CNC(=O)OC(C)(C)C)CC1=O (stereo unspecified)",
    "cytotoxicity at 10 µM, %": 7.79
  },
  {
    "MOLECULE": "CCc1noc(C(C)N(C)CC(=O)Nc2ccc(C)cc2)n1 (stereo unspecified)",
    "cytotoxicity at 10 µM, %": -6.42
  },
  {
    "MOLECULE": "CCc1ccc(C2c3nc[nH]c3CCN2Cc2nccn2CC)nc1 (stereo unspecified)",
    "cytotoxicity at 10 µM, %": -0.123
  },
  {
    "MOLECULE": "COCC(=O)NCc1ccc(-c2ccccc2C(=O)O)cn1",
    "cytotoxicity at 10 µM, %": -1.53
  },
  {
    "MOLECULE": "O=C(Nc1cc(Cl)ccn1)c1nc(N2CCCC2)ncc1Cl",
    "cytotoxicity at 10 µM, %": -9.26
  },
  {
    "MOLECULE": "CCn1cc(NC(=O)C2CCN(Cc3nc(C(C)C)no3)CC2)cn1",
    "cytotoxicity at 10 µM, %": 0.449
  }
]
